Attribution: PubChem BioAssay (NCI)

# Tested on: SK-MEL-5 melanoma
# Assay Notes: NCI tumour cell line growth inhibition, 48 h; in the data active = GI50 below about 0.43 µM; inactive = the rest
A correct response names exactly one class from TRUE (active), FALSE (inactive)

Recorded test outcome, item `Cc1ccccc1NC(=O)c1sc2nc3c(cc2c1N)C(=O)CCC3`
FALSE

Recorded test outcome, item C#CC#CC#CC#CC#CC#CC#CC#CCC1OC[C@H](COC(=O)O[C@@H](C(=O)O[C@H]2C[C@@]3(O)[C@@H](OC(=O)c4ccccc4)[C@@H]4[C@]5(OC(C)=O)CO[C@@H]5C[C@H](O)[C@@]4(C)C(=O)[C@H](OC(C)=O)C(=C2C)C3(C)C)[C@@H](NC(=O)c2ccccc2)c2ccccc2)O1 (some centres not stated)
FALSE

Recorded test outcome, item `CN(C)CCCC(=O)Nc1ccc(Cn2nnc3c2C(=O)c2nnn(Cc4ccc(NC(=O)CCCN(C)C)cc4)c2C3=O)cc1`
FALSE

Recorded test outcome, item `c1ccc2c(c1)ccc1c3ccccc3ccc21`
FALSE

Recorded test outcome, item `O=C(Nc1ccccc1F)c1ccc(NC2=C(Cl)C(=O)N(Cc3ccccc3)C2=O)cc1`
FALSE

Recorded test outcome, item `C=C1C(=O)O[C@H]2[C@H]1CC(=O)/C(C)=C\CC[C@@]1(C)O[C@@H]21`
FALSE

* * *

# Tested on: MOLT-4 leukemia
# Assay Notes: NCI tumour cell line growth inhibition, 48 h
Listed compounds paired with reported TGI

Examples with their reported TGI follow.
Compound	Assay Target	TGI
O=C(NC(CO)CO)c1ccc2cc(C(=O)N3CC(CCl)c4ccc([N+](=O)[O-])cc43)[nH]c2c1 (centres undefined)	MOLT-4 leukemia	> 100 µM
CS(=O)(=O)CS(=O)CS(=O)CS(=O)CC(NC(=O)CCC(N)C(=O)O)C(=O)O (centres undefined)	MOLT-4 leukemia	> 100 µM
COC(=O)c1ccccc1N=Cc1ccc(N(CCC#N)S(=O)(=O)c2ccccc2)cc1	MOLT-4 leukemia	> 100 µM
O=C(NNCc1ccccc1O)c1ccccc1O	MOLT-4 leukemia	> 100 µM
CC(=O)OC1C(O)C(C)OC(OC(=O)C2CCC3C(C2)OC2(CC(OC(=O)/C=C/c4ccccc4)C(C)CO2)C32CO2)C1OC1OC(C)C(O)C(O)C1O (centres undefined)	MOLT-4 leukemia	5.05 µM

Specify reported TGI for the compound shown: `COc1cc(C)cc(OC)c1/C=C/C(=O)O`
> 100 µM

Specify reported TGI for the compound shown: C=C1[C@H](OCC(C)C)[C@@H](OC(=O)C(C)CC)[C@@H](O)C(C)(C)/C=C/[C@H](C)C(=O)[C@@]2(O)C[C@H](C)[C@H](O)[C@@H]2[C@H]1OC(=O)C(C)CC (some centres undefined)
> 10.3 µM

Specify reported TGI for the compound shown: `COc1cnnc2c(C)c(-c3ccccc3)nn12`
> 100 µM

Specify reported TGI for the compound shown: CC1(CO)C(=O)OC12CCCCC2 (centres undefined)
> 100 µM

* * *

# Test system: U251 CNS
# Assay Notes: NCI tumour cell line growth inhibition, 48 h
# label = y if TGI >= 20 µM else n

Record excerpt, results attached:
Compound	Assay Target	Class Assignment
COc1cc(-c2coc3c(OC)c(OC4OC(COC5OC(C)C(O)C(O)C5O)C(O)C(O)C4O)c(OC)c(O)c3c2=O)cc(C)c1O (stereo not given)	U251 CNS	y
OC(C(=Nc1ccccc1)c1ccccc1)c1ccccc1 (stereo not given)	U251 CNS	n
CCOC(=O)C1(C(=O)OCC)CC=C(C)CC12C(=O)Nc1ccccc12 (stereo not given)	U251 CNS	y
CCCCNCC(O)c1cc(-c2ccc(C(F)(F)F)cc2)nc(-c2ccc(C(F)(F)F)cc2)c1 (stereo not given)	U251 CNS	n
O=C(O/N=C1/CCCC/C1=C\c1ccccc1)c1ccc(Cl)cc1	U251 CNS	y
Cc1ccc([Se][Se]c2ccc(C)cc2)cc1	U251 CNS	n
Cc1ccccc1NC(=O)c1sc2nc3c(cc2c1N)C(=O)CCC3	U251 CNS	y
COc1cc(/C=C/C(=O)c2cc(OC)c(OC)c(OC)c2)cc(OC)c1OC	U251 CNS	n

Could you tell me if the measured TGI of `COC(=O)c1ccccc1N=Cc1ccc(N(CCC#N)S(=O)(=O)c2ccccc2)cc1` reaches 20 µM or more?
y

Could you tell me if the measured TGI of COC1(OC)c2ccccc2C2(O)c3ccccc3C(=O)C12 (stereo not given) reaches 20 µM or more?
y

* * *

# System: M14 melanoma
# Assay Notes: NCI tumour cell line growth inhibition, 48 h; in the data active means GI50 below about 0.43 µM; inactive means the rest
A correct response names exactly one class from true for active, false for inactive

Record excerpt, results attached:
Molecule	Class Assignment
CCOC(=O)c1cnc2c(cnn2CC)c1NN=C(C)C	false
Clc1ccc(Nc2nc3ccccc3c3occc23)cc1	false
Nc1nc(Nc2ccc3c(c2)CCC(N2CCCC2)CC3)nn1-c1cc2c(nn1)-c1ccccc1CCC2 (stereo not given)	false
COc1ccc(-c2c(C#N)c(N)nc3c2CCCc2ccc(F)cc2-3)cc1OC	true

Okay, next one:
Recorded test outcome, item `C1C[OH+]CC[OH+]CC[OH+]CC[OH+]CC[OH+]CC[OH+]1.[Cl-].[Ta+5]`
false

* * *

Listed molecules paired with reported TGI
# Tested on: LOX IMVI melanoma
# Assay Notes: NCI tumour cell line growth inhibition, 48 h

Molecule	Assay Target	Assay Metric	Reported Result
CCN1CCCCC(=N\O)/C(=N/O)CCCC1	LOX IMVI melanoma	TGI	> 100 µM
N#Cc1c(-c2ccccc2)cc(-c2ccccc2)n(C2OC(CO)C(O)C(O)C2O)c1=O (stereo unspecified)	LOX IMVI melanoma	TGI	> 100 µM
C=C(COC(=O)C(C)C)[C@H]1Oc2ccc(C(C)=O)cc2[C@@H]1OC(=O)C(C)C	LOX IMVI melanoma	TGI	> 100 µM
CCC(C)CC(CC)NCCN1CCN(C(CC)CC(C)CC)C1=S (stereo unspecified)	LOX IMVI melanoma	TGI	2.91 µM
COC1(OC)c2ccccc2C2(O)c3ccccc3C(=O)C12 (stereo unspecified)	LOX IMVI melanoma	TGI	> 100 µM

Tell me TGI of CCOC(=O)CCC(NC(=O)c1ccc(NCc2ccc3nc(-c4ccccc4)c(Cl)nc3c2)c2ccccc12)C(=O)OCC (stereo unspecified) when tested on LOX IMVI melanoma.
> 100 µM

Tell me TGI of `CN(C)/C=N/S(=O)(=O)c1nn2c(C=O)c(-c3cc4ccccc4oc3=O)nc2s1` when tested on LOX IMVI melanoma.
15.4 µM

* * *

# Tested on: KM20L2 colon
# Assay Notes: NCI tumour cell line growth inhibition, 48 h
Listed molecules paired with reported TGI

Molecule	Assay Target	Assay Metric	Reported Result
NC(=S)N/N=C(\C(=O)Nc1ccc(Cl)c(Cl)c1)C1=NN(c2ccccc2)C(c2cccc([N+](=O)[O-])c2)CC1=O (stereo unspecified)	KM20L2 colon	TGI	46.8 µM
O=C1CCC(=O)C12CCc1cccc(O)c12	KM20L2 colon	TGI	> 100 µM
O=C1CCC2CCOc3ccc(O)c1c32 (stereo unspecified)	KM20L2 colon	TGI	> 100 µM

Specify reported TGI for the molecule shown: `C/C(=C/c1c(C)[nH]c(=O)[nH]c1=O)C(=O)O`
> 1370 µM

Specify reported TGI for the molecule shown: `O=c1cc2cc(O)[nH]c(=O)c2c(O)[nH]1`
> 100 µM

Specify reported TGI for the molecule shown: `Oc1ccccc1C=Nc1ccccc1N=Cc1ccccc1O`
> 100 µM

Specify reported TGI for the molecule shown: `CC1=C(c2cc(C(=O)Nc3cccc(C(F)(F)F)c3)nc(NC#N)n2)Sc2ccccc2N1`
> 100 µM

Specify reported TGI for the molecule shown: C=CCC(C)(C(=O)NCCC)C(=O)c1ccccc1O (stereo unspecified)
> 100 µM

Specify reported TGI for the molecule shown: `O=c1c2cccnc2ncn1CCCN1CCOCC1`
> 100 µM

Specify reported TGI for the molecule shown: `COc1cc(/C=C2\CCc3ccccc3C2=O)cc(OC)c1OC`
31.1 µM

Specify reported TGI for the molecule shown: COC1(OC)c2ccccc2C2(O)c3ccccc3C(=O)C12 (stereo unspecified)
> 100 µM

* * *

Listed compounds paired with reported TGI
# Test system: KM12 colon
# Assay Notes: NCI tumour cell line growth inhibition, 48 h

Examples with their reported TGI follow.
Compound	Assay Target	TGI
Cn1cnc([N+](=O)[O-])c1Sc1nnc(C(F)(F)F)n1C	KM12 colon	> 100 µM
Cn1c(=O)c2[nH]c(-n3nc(-c4ccccc4)cc3N)nc2n(C)c1=O	KM12 colon	> 100 µM

Specify reported TGI for the compound shown: `O=c1c(S(=O)(=O)Oc2ccccc2)coc2cc(F)ccc12`
> 100 µM

Specify reported TGI for the compound shown: `O=C(CC(=O)c1ccccc1NC1=Cc2ccccc2C(=O)C1=O)C(=O)NC1=C(Cl)C(=O)c2ccccc2C1=O`
15.6 µM

Specify reported TGI for the compound shown: `COC1=C(OC)C(=O)C(Cc2c(Cl)nc3n2CCS3)=C(C)C1=O`
30.8 µM

Specify reported TGI for the compound shown: `Nc1ccc(-c2nc3cc(F)ccc3s2)cc1`
> 100 µM

Specify reported TGI for the compound shown: `C=C(COC(=O)C(C)C)[C@H]1Oc2ccc(C(C)=O)cc2[C@@H]1OC(=O)C(C)C`
> 100 µM

Specify reported TGI for the compound shown: `O=C1C(=O)c2c(nc3ncccn23)-c2ccccc21`
1.9 µM

Specify reported TGI for the compound shown: `COc1cc(C(CC(OC)OC)=C(C#N)C#N)cc(OC)c1OC`
60.5 µM

Specify reported TGI for the compound shown: CCCCNCC(O)c1cc(-c2ccc(C(F)(F)F)cc2)nc(-c2ccc(C(F)(F)F)cc2)c1 (stereo not given)
3.6 µM
